Every entry's value here was drawn from PubChem BioAssay (NCI).

system: TK-10 renal; assay: NCI tumour cell line growth inhibition, 48 h; in the data active = GI50 below about 0.43 µM; inactive = the rest
Possible outcomes: True = active, False = inactive

{"MOLECULE": "Nc1ncnc2c1nnn2C1OC(CO)C(O)C1O (centres undefined)", "ANSWER_LABEL": "True"}
{"MOLECULE": "O=c1c2sccc2n(CC2COc3ccccc3O2)c(=O)n1O (centres undefined)", "ANSWER_LABEL": "False"}
{"MOLECULE": "CCN1CCN(c2nc(C)cc(N(CCNc3ccnc4cc(Cl)ccc34)Cc3ccc4c(c3)OCO4)n2)CC1", "ANSWER_LABEL": "False"}
{"MOLECULE": "COc1cc2c3c(n(C)c(=O)c2cc1OC)-c1cc2c(cc1/C3=C\\CCCN)OCO2", "ANSWER_LABEL": "False"}
{"MOLECULE": "CO[C@H]1/C=C(/C)CCC[C@H](C)[C@H](O)[C@@H](C)C(=O)C(C)(C)[C@@H](O)CC(=O)O[C@@H]1/C(C)=C/c1csc(C)n1", "ANSWER_LABEL": "True"}
{"MOLECULE": "O=C(CCc1nnc2sc(-c3ccc(Cl)cc3Cl)nn12)c1nc2ncccc2[nH]1", "ANSWER_LABEL": "False"}
{"MOLECULE": "CCN(CC)c1ccc(-c2cc(-c3cc(OC)c(OC)c(OC)c3)nc(N3CCOCC3)c2C#N)cc1", "ANSWER_LABEL": "False"}
{"MOLECULE": "Cn1cnc([N+](=O)[O-])c1S(=O)(=O)Oc1cccc2ccccc12", "ANSWER_LABEL": "False"}
{"MOLECULE": "CC(C)[C@H]1COC(=O)N1[C@@H]1C(=O)N([C@@H](CCC(=O)N2CCN(C3CCCC3)CC2)C(=O)N[C@@H]2CCCc3ccccc32)[C@@H]1/C=C/c1cccc(Br)c1", "ANSWER_LABEL": "False"}
{"MOLECULE": "Nc1ncnc2n[nH]c(Nc3ccc(F)cc3)c12", "ANSWER_LABEL": "False"}
{"MOLECULE": "Cc1cc(I)cc(CN(C)CCCN2CCCCC2)c1O", "ANSWER_LABEL": "False"}
{"MOLECULE": "ClCc1cccc(Cn2cnc3ncnc(Cl)c32)c1", "ANSWER_LABEL": "False"}
{"MOLECULE": "COc1ccc(-c2nnc(COc3ccc(C(=O)/C=C/c4ccco4)cc3)o2)cc1", "ANSWER_LABEL": "False"}
{"MOLECULE": "O=C(Nc1ccc(Cl)cc1)c1cccc(NC2=C(Cl)C(=O)N(Cc3ccccc3)C2=O)c1", "ANSWER_LABEL": "False"}

###

Let's look at some compounds and their measured TGI.
system: SF-268 CNS; test: NCI tumour cell line growth inhibition, 48 h
MEASURED_QUANTITY: TGI

{"COMPOUND": "COP(=O)(/C=C/c1cc(C(=O)OCc2ccccc2)n(S(=O)(=O)c2ccccc2)c1)OC", "RESULT": "> 100 µM"}
{"COMPOUND": "CCc1cc(Cc2cc(CC)c(NC(=O)C(=O)Cc3ccccn3)c(CC)c2Cl)c(Cl)c(CC)c1NC(=O)C(=O)Cc1ccccn1", "RESULT": "> 100 µM"}
{"COMPOUND": "CC1=C[C@@H]2Cc3nc4cc(Cl)ccc4c(N)c3[C@H](C1)C2", "RESULT": "25.8 µM"}
{"COMPOUND": "CCCCCCN(CCCCCC)C(=O)Cc1c2n(c3ccccc13)Cc1ccccc1-2", "RESULT": "> 100 µM"}
{"COMPOUND": "Cc1cc(-c2ccc3nc(C4CCOCC4)n(CCOC(F)(F)F)c3c2)cn(C)c1=O", "RESULT": "80.2 µM"}
{"COMPOUND": "C[C@@H]1CCC2[C@@H](C)[C@@H](OCC(CO[C@H]3OC4O[C@@]5(C)CC[C@H]6[C@H](C)CCC([C@H]3C)[C@@]46OO5)OC(=O)CCC(=O)O)OC3O[C@@]4(C)CC[C@@H]1[C@]32OO4 (stereo not given in full)", "RESULT": "20.1 µM"}
{"COMPOUND": "CN(C)c1ccc(/C=C(\\NC(=O)c2ccccc2)c2nc3ncncc3[nH]2)cc1", "RESULT": "> 100 µM"}
{"COMPOUND": "ClCc1cccc(Cn2cnc3ncnc(Cl)c32)c1", "RESULT": "3.5 µM"}
{"COMPOUND": "N#CC(C#N)=CNC(N)=S", "RESULT": "> 100 µM"}
{"COMPOUND": "CC1=NS(=O)(=O)c2ccccc2N1", "RESULT": "> 100 µM"}
{"COMPOUND": "O=C1NCCN1/N=C/c1c(Cl)n(-c2ccccc2)c2ccccc12", "RESULT": "59 µM"}
{"COMPOUND": "Cc1c2c(nn1-c1ccc(S(=O)(=O)/N=C3\\SCCC(=O)N3c3ccccc3)cc1)-c1ccccc1CC2", "RESULT": "> 100 µM"}
{"COMPOUND": "Cc1cccc(NC(=O)Cn2cnc3sc(C(=O)OC(C)C)c(C)c3c2=O)c1", "RESULT": "> 50 µM"}
{"COMPOUND": "N#CC12C(=O)N=C(N)C1(C#N)C(c1ccco1)NC1=C2CCCC1 (stereo not given)", "RESULT": "> 100 µM"}
{"COMPOUND": "CSC(=S)N/N=C(\\C)c1ccc(S(=O)(=O)N(C)c2ccccc2)cc1", "RESULT": "> 100 µM"}
{"COMPOUND": "COc1c(Cl)c(=O)oc2ccc(Cl)cc12", "RESULT": "> 100 µM"}
{"COMPOUND": "[O-][n+]1ccccc1Sc1nc(Sc2cccc[n+]2[O-])nc(Sc2cccc[n+]2[O-])n1", "RESULT": "10.1 µM"}
{"COMPOUND": "O=C(CC(C(=O)c1ccsc1)c1ccc2c(c1)OCO2)c1ccccc1 (stereo not given)", "RESULT": "> 100 µM"}
{"COMPOUND": "CN(C)c1ccc(C(=N/N=C2\\C(=O)Nc3ccccc32)c2ccc(N(C)C)cc2)cc1", "RESULT": "29.2 µM"}
{"COMPOUND": "CCOC(=O)C1=C(C)C2C=C(c3cccs3)CC(c3ccc(Cl)cc3)=C2OC1=O (stereo not given)", "RESULT": "> 100 µM"}
